# Method: Growth inhibition of mouse J774 cells at 256 uM after 24 hrs by resazurin reduction assay
# Format: cell-based
# Condition set: read-out: GI
inhibition at 24 h, 256 µM values by entry
Just the number in %, nothing appended.

>>> reported("O=c1c2cc([N+](=O)[O-])ccc2n(Cc2ccccc2)n1Cc1ccccc1")
57.9
>>> reported("COc1nn(-c2ccccc2)c2ccc([N+](=O)[O-])cc12")
27.1
>>> reported("COc1c2cc([N+](=O)[O-])ccc2nn1Cc1ccc2ccccc2c1")
9.31

Now look at this one.
Query string: Give the reported value of inhibition at 24 h, 256 µM for this record: CCCn1c2ccc([N+](=O)[O-])cc2c(=O)n1-c1ccccc1
Result string: 0

###

Parameter inhibition at 24 h, 32 µM: see the listing below.
# Method: Growth inhibition of mouse J774 cells at 32 uM after 24 hrs by resazurin reduction assay
# Format: cell-based
# Condition set: read-out: GI
Note: unit % is implicit; provide only the numeric part.

>>> reported("CCCCn1c2ccc([N+](=O)[O-])cc2c(=O)n1Cc1ccccc1")
27.1

Query string: // Input: CC(C)n1c2ccc([N+](=O)[O-])cc2c(=O)n1Cc1ccccc1 . Output its inhibition at 24 h, 32 µM only.
Result string: 0

Query string: // fetch inhibition at 24 h, 32 µM given entry CCCn1c2ccc([N+](=O)[O-])cc2c(=O)n1Cc1ccccc1
Result string: 0

###

# Method: Growth inhibition of mouse J774 cells at 256 uM after 24 hrs by resazurin reduction assay
# Assay type: cell-based
# Condition set: read-out: GI
Outcome: Fulfilled for inhibition at 24 h, 256 µM of at least 20%; Not fulfilled for anything lower.

For orientation, consider the following solved cases.
>>> assigned_category("O=[N+]([O-])c1ccc2nn(Cc3ccccc3)c(OCc3ccccc3)c2c1")
"Fulfilled"
>>> assigned_category("CCCOc1c2cc([N+](=O)[O-])ccc2nn1Cc1ccccc1")
"Not fulfilled"
>>> assigned_category("CCCn1c2ccc([N+](=O)[O-])cc2c(=O)n1Cc1ccc2ccccc2c1")
"Not fulfilled"
>>> assigned_category("CCCn1c2ccc([N+](=O)[O-])cc2c(=O)n1Cc1ccccc1")
"Not fulfilled"

Query string: Is the recorded value of inhibition at 24 h, 256 µM equal to or greater than 20% for this compound? Cn1nc2ccc([N+](=O)[O-])cc2c1OCc1ccccc1
Result string: Not fulfilled

Query string: inhibition at 24 h, 256 µM >= 20% for COc1c2cc([N+](=O)[O-])ccc2nn1C ?
Result string: Fulfilled

Query string: Reported inhibition at 24 h, 256 µM reaches at least 20% for CCCCn1c2ccc([N+](=O)[O-])cc2c(=O)n1Cc1ccccc1 ?
Result string: Fulfilled
